System: MS2 coat protein
Test: apparent Kd, MS2 coat protein; higher = weaker binding; RNA-MaP array; tryptophan 2.4 mM where present
Settings: ligand present: tryptophan; designed as: OFF switch for tryptophan
Outcome: rule met for apparent Kd of at least 0.02 µM; rule not met for anything lower.

Examples from the recorded data:
| seqString | testedTarget | answerLabel |
| --- | --- | --- |
| GAGCUCGUGGACUGGCGUGCUCCGCUCCGUCGAGGACCGGUACGGCCGCCACUCGACAUGAGGAUCACCCAUGUGUGAGCUCGCU | MS2 coat protein | rule met |
| UAUAUAUAUCACUAACUGUUCUUGAGGUCUCGAGGACCGGUACGGCCGCCACUCGGGCCGCCUCACAUGAGGAUCACCCAUGUCC | MS2 coat protein | rule met |
| UAUAAUAACUCGGCCGCCACUGGCACAUGAGGAUCACCCAUGUCUAUAUAUAAUAUAUAGUUGCACAGGACCGGGAGAUAUAUAU | MS2 coat protein | rule not met |

Input line: Reported apparent Kd at or above 0.02 µM? `CGCAACAUGAGGAUCACCCAUGUAAUGACGCGAGGACCGGUACGGCCGCCACUCGCCUGCCAAUGAGCGCAUGCGGCCUGGGUAU`
Output line: rule not met

Input line: Request: `GAUCGAAAUAACGCAUAGGAAAACUAUGCGCGAGGACCGGUACGGCCGCCACUCGUCCUCACAUGAGGAUCACCCAUGUACGAUC`
Output line: rule met

Input line: Continue with `CACGAAAGAUCGGCCGCCACUAAUCUAUGUGUUCUUUCACAUGAGGAUCACCCAUGUUCUUGCGUUAGGACCGGGAUUGAGCGUG`
Output line: rule met
